Reference source: patent US20230094463A1

Listed here: items and their measured pKd.
- assayTarget: T1, Human Galectin-3 protein (Acro Biosystems, GA3-H5129) (human, UniProt P17931 2-250)
- T1 construct: Bought protein; also called Gal3-ECD-His; Gal3-His; not shown: linker-spaced 6-histidine tag
- T1 sequence (P17931 2-250): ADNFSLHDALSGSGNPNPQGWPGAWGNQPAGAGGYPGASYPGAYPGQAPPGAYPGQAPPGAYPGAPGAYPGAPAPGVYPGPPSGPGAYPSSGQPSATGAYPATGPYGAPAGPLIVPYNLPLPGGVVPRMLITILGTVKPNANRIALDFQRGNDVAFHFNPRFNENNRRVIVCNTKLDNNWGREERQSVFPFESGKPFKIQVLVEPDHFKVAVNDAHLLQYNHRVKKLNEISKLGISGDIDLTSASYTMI
- procedureSummary: SPR (Biacore T200), antibody captured, Galectin-3 as analyte
pKd: −log10 of the molar value.

# binder, pKd
measured = [
    ("20D11.2C6 (antibody, V domains shown) VH: EVQLQQSGPELVKPGASVKISCKASGYTFTDFYINWVKQSHGKSLEWIGDINPKNGGINYNPKFKIKATLTVDKSSSTSYMDLRGLTSEDSAVYYCTSGYGFPYWGQGTLVTVSA VL: DIQMNQSPSSLSASLGDTITITCRASQNIYIWLSWYQQKPGNIPKLLIYKASNLHTGVPSRFSGSGSGTDFTLTISTLQPEDIATYFCLQGQSYPLTFGAGTKLEMK", 7.56),
    ("IMT001 (TB001) (antibody, V domains shown, anti-Gal3 antibody; also called IMT001-4) VH: QVQLVQSGSELKKPGASVKVSCKASGYTFTNYGMNWVRQAPGQGLKWMGWINTNTGEPTYVEEFTGRFVFSLETSVSTAYLQISSLKAEDTAVYFCAPYDNFFAYWGQGTTVTVSS VL: DIVLTQSPLSLPVTPGEPASISCRSSKSLLYKDGKTYLNWFLQKPGQSPQLLIYLMSTHASGVPDRFSGSGSGTDFTLKISRVEAEDVGVYYCQQLVDYPLTFGGGTKLEIK", 8.22),
    ("7D8.2D8 (antibody, V domains shown) VH: EVQLVESGGGLVKPGGSLKLSCAASGFTFSSYAMSWVRQTPEKRLEWVATISDGGIYTYYPDNVKGRFTISRDNAKNNLFLQMSHLKSEDTAMYYCVRDGGYWGQGTTLTVSS VL: DVLMTQTPLSLPVSLGDQASISCRSSQSIVHSNGNTYLEWYLQKPGQSPKLLIYKVSNRFSGVPDRFSGSGSGTDFTLKISRVEAEDLGVYYCFQGSHVPLTFGAGTKLELK", 8.60),
]
